// provenance: ChEMBL document CHEMBL2086318

Tested on: Mycobacterium kansasii
methodSummary: Antimycobacterial activity against Mycobacterium kansasii My 6509/96 clinical isolate after 14 days by micromethod
Format: functional
assaySetup: My 6509/96, 336 h
I'd appreciate it if you could supply log10 of MIC values for the items below.
// units: µM (pre-log); metric: MIC; scale: log10

COc1ccc(Cl)cc1C(=O)Nc1cccc([N+](=O)[O-])c1 ... 2.10
COc1ccc(Cl)cc1C(=S)Nc1cccc(C(F)(F)F)c1 ... 1.20
COc1ccc(Cl)cc1C(=O)Nc1ccc(C(F)(F)F)cc1 ... 2.40
COc1ccc(Cl)cc1C(=O)Nc1ccc(Cl)cc1 ... 2.10
COc1ccc(Cl)cc1C(=S)Nc1cccc(Br)c1 ... 1.51
COc1ccc(Cl)cc1C(=S)Nc1ccc(Cl)c(Cl)c1 ... 2.10

For each of the compounds below, note its log10 of MIC.
1. COc1ccc(Cl)cc1C(=O)Nc1ccc(Br)cc1
2. COc1ccc(Cl)cc1C(=S)Nc1ccc(C(F)(F)F)cc1
3. COc1cc(Cl)ccc1C(=S)Nc1cccc([N+](=O)[O-])c1
4. COc1cc(Cl)ccc1C(=S)Nc1ccc(Br)cc1
5. COc1ccc(Cl)cc1C(=S)Nc1cccc(Cl)c1
6. COc1cc(Cl)ccc1C(=S)Nc1cccc(Br)c1

Out:
[1.80, 1.20, 1.20, 1.51, 1.20, 2.10]
